src = ChEMBL document CHEMBL3232783

molecular target: Sigma non-opioid intracellular receptor 1 (Cavia porcellus, UniProt Q60492); experiment: Displacement of [3H]-(+)-pentazocine from sigma-1 receptor in guinea pig brain cortex membranes after 120 mins by scintillation counting analysis
Sequence (Q60492 whole entry): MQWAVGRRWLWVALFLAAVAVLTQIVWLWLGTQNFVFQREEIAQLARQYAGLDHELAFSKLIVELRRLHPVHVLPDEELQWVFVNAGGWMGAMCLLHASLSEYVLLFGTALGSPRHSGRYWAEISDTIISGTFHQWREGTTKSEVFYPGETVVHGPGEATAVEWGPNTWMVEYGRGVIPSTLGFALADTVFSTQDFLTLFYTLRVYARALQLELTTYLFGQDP
pKi: −log10 of the molar value.
measurement-type: pKi

COc1ccc2cc(CN3CCN(CC4CCCCC4)C[C@@H]3CCO)ccc2c1
7.37
CC(C)CCN1CCN(Cc2ccccc2)[C@@H](CCO)C1
7.34

I: OCC[C@H]1CN(CC2CCCCC2)CCN1Cc1ccc2ccccc2c1
II: CCCCN1CCN(Cc2ccc(-c3ccccc3)cc2)[C@@H](CCO)C1
III: OCC[C@@H]1CN(CC2CCCCC2)CCN1Cc1ccccc1
IV: OCC[C@H]1CN(CCc2ccccc2)CCN1Cc1ccccc1
QUERY: Exam item: list the entries in increasing order of pKi. Provide the labels, sequenced as the question asks.
RESULT: II, IV, I, III

a: OCC[C@H]1CN(CC2CCCCC2)CCN1Cc1cccc2ccccc12
b: OCC[C@H]1CN(CC2CCCCC2)CCN1Cc1ccccc1
QUERY: Given the two records a and b , choose the one whose pKi value is lower. Select an item and report its label.
RESULT: b
(b: 8.38, a: 8.72)

====

species on record: Rattus norvegicus; test: Displacement of [3H]-DTG from sigma-2 receptor in rat liver homogenates at 1 uM after 120 mins by scintillation counting analysis in presence of (+)-pentazocine relative to control; assay type: tissue-based
measurement-type: inhibition (%)

Consider the following illustrative entries.
CN1CCN(Cc2ccccc2)[C@@H](CCO)C1
27
CCCCN1CCN(Cc2ccccc2)[C@@H](CCO)C1
10
CCCCN1CCN(Cc2ccc(OC)cc2)[C@@H](CCO)C1
16

a: CN1CCN(Cc2cccc3ccccc23)[C@@H](CCO)C1
b: CN1CCN(Cc2ccc(-c3ccccc3)cc2)[C@@H](CCO)C1
QUERY: Given the two records a and b , choose the one whose inhibition value is lower. Select an item and report its label.
RESULT: a

====

assay: Displacement of [3H]-DTG from sigma-2 receptor in human RT4 cell membranes after 120 mins by scintillation counting analysis in presence of (+)-pentazocine; conditions: rt-4
measurement-type: pKi
Worth noting: pKi values are minus log10 of concentrations stated in mol/L.

Consider the following illustrative entries.
OCC[C@H]1CN(CC2CCCCC2)CCN1Cc1cccc2ccccc12
7.80
OCC[C@@H]1CN(CC2CCCCC2)CCN1Cc1ccccc1
6.60
O=C(CCCN1CCC(O)(c2ccc(Cl)cc2)CC1)c1ccc(F)cc1
6.70
OCC[C@@H]1CN(CC2CCCCC2)CCN1Cc1ccc(-c2ccccc2)cc1
7.41
OCC[C@H]1CN(CC2CCCCC2)CCN1Cc1ccc(-c2ccccc2)cc1
7.37

QUERY: Input OCC[C@H]1CN(CC2CCCCC2)CCN1Cc1ccc2ccccc2c1 , output reported pKi.
RESULT: 7.51

QUERY: Input OCC[C@@H]1CN(CC2CCCCC2)CCN1Cc1cccc2ccccc12 , output reported pKi.
RESULT: 7.43

QUERY: Input OCC[C@H]1CN(CC2CCCCC2)CCN1Cc1ccccc1 , output reported pKi.
RESULT: 6.77

QUERY: Input Cc1ccccc1NC(=N)Nc1ccccc1C , output reported pKi.
RESULT: 7.70

====

test: Selectivity ratio of Ki for sigma-2 receptor in rat liver homogenates to Ki for sigma-1 receptor in guinea pig brain cortex membranes; assay type: cell membranes
measurement-type: Ratio Ki

OCC[C@H]1CN(CC2CCCCC2)CCN1Cc1cccc2ccccc12
14
OCC[C@H]1CN(CC2CCCCC2)CCN1Cc1ccc2ccccc2c1
15
OCC[C@H]1CN(CC2CCCCC2)CCN1Cc1ccc(-c2ccccc2)cc1
14
OCC[C@@H]1CN(CC2CCCCC2)CCN1Cc1ccc(-c2ccccc2)cc1
14
